# target: GST-E2F-4 (Homo sapiens, UniProt Q16254)
# Construct: The 1239-bp cDNA fragment of E2F-4 was amplified from I.M.A.G.E cDNA clone; made in house; host or cells: E. coli BL21(DE3)pLysS
# Sequence (Q16254 whole entry, the tested form may be a part): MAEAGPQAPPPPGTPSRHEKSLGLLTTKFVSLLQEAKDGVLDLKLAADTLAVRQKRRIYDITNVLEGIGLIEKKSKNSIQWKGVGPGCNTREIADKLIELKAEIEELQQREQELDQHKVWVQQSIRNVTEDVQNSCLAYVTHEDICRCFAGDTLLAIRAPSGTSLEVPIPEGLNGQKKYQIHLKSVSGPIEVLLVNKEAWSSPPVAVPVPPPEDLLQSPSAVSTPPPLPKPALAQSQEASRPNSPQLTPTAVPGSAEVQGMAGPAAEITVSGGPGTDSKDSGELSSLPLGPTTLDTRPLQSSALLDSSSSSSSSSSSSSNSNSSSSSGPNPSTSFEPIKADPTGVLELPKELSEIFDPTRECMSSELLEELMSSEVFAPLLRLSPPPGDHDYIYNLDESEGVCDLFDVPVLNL
# protocol-details: SPR interaction analysis with immobilized recombinant GST-E2F-4
# Type: binding
# condition-label: SPR; read-out: KD between GST-E2F-4 and each compound
# Description: The gene encoding E2F-4 protein was engineered into an E. coli expression system as a GST fusion protein (GST-E2F-4) and purified by affinity interaction using glutathione Sepharose beads. The GST-E2F-4 was immobilized on a CM5 sensor chip using the same procedure as described for the synthetic ETBP. […]
assay-metric: Kd (µM)

a. COc1cc([C@@H]2c3cc4c(cc3[C@@H](O[C@@H]3O[C@@H]5CO[C@@H](C)O[C@H]5[C@H](O)[C@H]3O)[C@H]3COC(=O)[C@H]23)OCO4)cc(OC)c1O [Etoposide]
b. COc1cc([C@@H]2c3cc4c(cc3[C@@H](O[C@@H]3O[C@@H]5CO[C@@H](c6cccs6)O[C@H]5[C@H](O)[C@H]3O)[C@H]3COC(=O)[C@H]23)OCO4)cc(OC)c1O [Teniposide, teniposide]
Given the two records a and b , choose the one whose Kd value is lower. Refer to your chosen entry by its label in the reply.
a
(a: 75 µM, b: 654 µM)

----------
# target: GST-E2F-4 (Homo sapiens)
# Construct: The 1239-bp cDNA fragment of E2F-4 was amplified from I.M.A.G.E cDNA clone; made in house; host or cells: E. coli BL21(DE3)pLysS
# protocol-details: SPR interaction analysis with immobilized recombinant GST-E2F-4
# Format: binding
assay-metric: Kd (µM)
Give your result in µM as a bare value.

Please give the measured Kd for this compound: `COc1cc([C@@H]2c3cc4c(cc3[C@H](O)[C@H]3COC(=O)[C@H]23)OCO4)cc(OC)c1OC`
308

----------
# target: E2F-4/DP1 (Homo sapiens, UniProt Q16254)
# Sequence (Q16254 whole entry, species assumed): as the sequence (Q16254 whole entry, the tested form may be a part) above
# protocol-details: Luciferase reporter gene assay, E2F-4/DP1 expressing CHO-K1 cells
# condition-label: 15 h incubation, read-out: IC50 of reporter gene transcription, E2F-4/DP1
assay-metric: IC50 (nM)
Write down the numeric answer in nM and omit the unit.

# IC50 lookup, item COc1cc([C@@H]2c3cc4c(cc3[C@@H](O[C@@H]3O[C@@H]5CO[C@@H](C)O[C@H]5[C@H](O)[C@H]3O)[C@H]3COC(=O)[C@H]23)OCO4)cc(OC)c1O [Etoposide]
1560
